Data origin, for the record: patent US20150352108A1

Collected IC50 values appear next to each entry.
# study-target: TBK1 (Homo sapiens, UniProt Q9UHD2)
# Construct: His-tag; made in house; host or cells: Sf9 insect cells
# Sequence (Q9UHD2 whole entry): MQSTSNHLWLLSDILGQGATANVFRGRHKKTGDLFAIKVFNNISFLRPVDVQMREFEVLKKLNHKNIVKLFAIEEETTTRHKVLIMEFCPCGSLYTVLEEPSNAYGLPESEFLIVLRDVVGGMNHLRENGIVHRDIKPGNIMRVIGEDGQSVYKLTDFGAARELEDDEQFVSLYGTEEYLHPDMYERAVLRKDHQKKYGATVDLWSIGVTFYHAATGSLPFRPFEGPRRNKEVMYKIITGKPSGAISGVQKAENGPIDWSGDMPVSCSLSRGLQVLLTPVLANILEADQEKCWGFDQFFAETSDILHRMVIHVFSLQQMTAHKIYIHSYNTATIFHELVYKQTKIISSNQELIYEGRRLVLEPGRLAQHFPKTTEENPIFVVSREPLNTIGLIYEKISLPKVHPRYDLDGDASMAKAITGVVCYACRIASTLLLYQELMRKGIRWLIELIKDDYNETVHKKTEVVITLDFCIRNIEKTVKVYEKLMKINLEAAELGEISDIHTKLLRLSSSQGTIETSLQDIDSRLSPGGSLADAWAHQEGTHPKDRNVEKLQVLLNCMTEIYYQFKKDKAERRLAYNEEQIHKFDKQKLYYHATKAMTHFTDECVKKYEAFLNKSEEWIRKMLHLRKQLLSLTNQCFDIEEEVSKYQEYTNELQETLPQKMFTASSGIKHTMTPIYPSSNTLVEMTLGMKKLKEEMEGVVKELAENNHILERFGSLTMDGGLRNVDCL
# assay-comment: In-vitro TBK1 kinase assay ([γ33]ATP filter-plate)
# Type: biochemical
# protocol-conditions: text bins; read-out: IC50 for inhibition of the kinase activity of TBK1

input-smiles | study-target | IC50
N#Cc1cc(-c2ccnc(Nc3ccc(CN4CC(O)C4)cc3)n2)ccc1OC1CCOCC1 | TBK1 (Homo sapiens, UniProt Q9UHD2) | < 10 nM
COc1ccc(-c2ccnc(Nc3ccc(OC4CCN(C)CC4)cc3)n2)cc1C#N | TBK1 (Homo sapiens, UniProt Q9UHD2) | < 10 nM
COc1cc(Nc2nccc(-c3ccc(OCCO)c(C#N)c3)n2)ccc1N1CCNC(=O)C1 | TBK1 (Homo sapiens, UniProt Q9UHD2) | < 10 nM
COC(=O)c1ccc(Nc2nccc(-c3ccc(OC4CCOCC4)c(C#N)c3)n2)cc1OC | TBK1 (Homo sapiens, UniProt Q9UHD2) | < 10 nM
COc1cc(Nc2nccc(-c3ccc(OC4CCOCC4)c(C#N)c3)n2)ccc1C(=O)N1CCCC1 | TBK1 (Homo sapiens, UniProt Q9UHD2) | < 10 nM
N#Cc1cc(-c2ccnc(Nc3ccc(Cn4ccnc4)cc3)n2)ccc1OC1CCOCC1 | TBK1 (Homo sapiens, UniProt Q9UHD2) | < 10 nM

For the molecule shown here, COC(=O)c1ccc(Nc2nccc(-c3ccc(OC4CCN(C(=O)[C@H](C)O)CC4)c(C#N)c3)n2)cc1 , give the reported IC50. < 10 nM

---

# study-target: TBK1 (Homo sapiens, UniProt Q9UHD2)
# Construct: His-tag; made in house; host or cells: Sf9 insect cells
# assay-comment: In-vitro TBK1 kinase assay ([γ33]ATP filter-plate)
# Type: biochemical
# protocol-conditions: text bins; read-out: IC50 for inhibition of the kinase activity of TBK1
measurement-type: IC50

Some solved cases for reference:
compound | study-target | measurement-type | result
COc1cc(Nc2nccc(-c3ccc(OC)c(C#N)c3)n2)cc(C(=O)O)c1 | TBK1 (Homo sapiens, UniProt Q9UHD2) | IC50 | 0.01 to 0.1 µM
CC(C)C(=O)Nc1ccc(-c2ccnc(Nc3cccc(CC(=O)N4CCN(C(C)C)CC4)c3)n2)cc1C#N | TBK1 (Homo sapiens, UniProt Q9UHD2) | IC50 | < 0.01 µM
COc1cc(Nc2nccc(-c3cccc(C#N)c3)n2)cc(OC)c1 | TBK1 (Homo sapiens, UniProt Q9UHD2) | IC50 | 0.1 to 0.5 µM
CC(C)C(=O)Nc1ccc(-c2ccnc(Nc3ccc(N4CCN(CCO)CC4)cc3)n2)cc1C#N | TBK1 (Homo sapiens, UniProt Q9UHD2) | IC50 | < 0.01 µM
COc1cc(-c2ccnc(Nc3ccc(N4CCOCC4)cc3)n2)cc(C#N)c1OC1CCNCC1 | TBK1 (Homo sapiens, UniProt Q9UHD2) | IC50 | < 0.01 µM

For the compound shown here, COc1cc(Nc2nccc(-c3ccc(OC4CCOCC4)c(C#N)c3)n2)ccc1OCCOCCNS(=O)(=O)N1CCOCC1 , give the reported IC50. < 0.01 µM

For the compound shown here, N#Cc1cc(-c2ccnc(Nc3ccc(CS(=O)(=O)N4CCCC4)cc3)n2)ccc1OC1CCOCC1 , give the reported IC50. < 0.01 µM

For the compound shown here, N#Cc1cccc(-c2ccnc(Nc3ccc(N4CCOCC4)cc3)n2)c1 , give the reported IC50. 0.01 to 0.1 µM

For the compound shown here, Cc1ccc(Nc2nccc(-c3ccc(OC4CCOCC4)c(C#N)c3)n2)cc1OCCN1CCNCC1 , give the reported IC50. < 0.01 µM

For the compound shown here, CN1CCN(CCNc2cccc(Nc3nccc(-c4ccc(OC5CCOCC5)c(C#N)c4)n3)c2)CC1 , give the reported IC50. < 0.01 µM

For the compound shown here, N#Cc1cc(-c2ccnc(Nc3ccc(CS(=O)(=O)N4CCN(CCO)CC4)cc3)n2)ccc1OC1CCOCC1 , give the reported IC50. < 0.01 µM

For the compound shown here, C[C@H](O)C(=O)N1CCC(Oc2ccc(-c3ccnc(Nc4ccc(C(=O)N5CCN(C)CC5)cc4)n3)cc2C#N)CC1 , give the reported IC50. < 0.01 µM

For the compound shown here, COc1cc(Nc2nccc(-c3ccc(OC4CCOCC4)c(C#N)c3)n2)ccc1CN1CC(O)C1 , give the reported IC50. < 0.01 µM

For the compound shown here, COc1cc(Nc2nccc(-c3ccc(OC4CCOCC4)c(C#N)c3)n2)ccc1S(=O)(=O)NCCCn1ccnc1 , give the reported IC50. < 0.01 µM

For the compound shown here, COc1cc(Nc2nccc(-c3ccc(OC4CCOCC4)c(C#N)c3)n2)ccc1S(=O)(=O)N1CCC(N(C)C)C1 (stereo not drawn) , give the reported IC50. < 0.01 µM
